Assignment: determine reported IC50 for the given molecules.
Biological target: hERG potassium channels (KCNH2, expressed in HEK293 cells) (Homo sapiens, UniProt Q12809)
Construct: expressed in transfected cells
Sequence (Q12809 whole entry): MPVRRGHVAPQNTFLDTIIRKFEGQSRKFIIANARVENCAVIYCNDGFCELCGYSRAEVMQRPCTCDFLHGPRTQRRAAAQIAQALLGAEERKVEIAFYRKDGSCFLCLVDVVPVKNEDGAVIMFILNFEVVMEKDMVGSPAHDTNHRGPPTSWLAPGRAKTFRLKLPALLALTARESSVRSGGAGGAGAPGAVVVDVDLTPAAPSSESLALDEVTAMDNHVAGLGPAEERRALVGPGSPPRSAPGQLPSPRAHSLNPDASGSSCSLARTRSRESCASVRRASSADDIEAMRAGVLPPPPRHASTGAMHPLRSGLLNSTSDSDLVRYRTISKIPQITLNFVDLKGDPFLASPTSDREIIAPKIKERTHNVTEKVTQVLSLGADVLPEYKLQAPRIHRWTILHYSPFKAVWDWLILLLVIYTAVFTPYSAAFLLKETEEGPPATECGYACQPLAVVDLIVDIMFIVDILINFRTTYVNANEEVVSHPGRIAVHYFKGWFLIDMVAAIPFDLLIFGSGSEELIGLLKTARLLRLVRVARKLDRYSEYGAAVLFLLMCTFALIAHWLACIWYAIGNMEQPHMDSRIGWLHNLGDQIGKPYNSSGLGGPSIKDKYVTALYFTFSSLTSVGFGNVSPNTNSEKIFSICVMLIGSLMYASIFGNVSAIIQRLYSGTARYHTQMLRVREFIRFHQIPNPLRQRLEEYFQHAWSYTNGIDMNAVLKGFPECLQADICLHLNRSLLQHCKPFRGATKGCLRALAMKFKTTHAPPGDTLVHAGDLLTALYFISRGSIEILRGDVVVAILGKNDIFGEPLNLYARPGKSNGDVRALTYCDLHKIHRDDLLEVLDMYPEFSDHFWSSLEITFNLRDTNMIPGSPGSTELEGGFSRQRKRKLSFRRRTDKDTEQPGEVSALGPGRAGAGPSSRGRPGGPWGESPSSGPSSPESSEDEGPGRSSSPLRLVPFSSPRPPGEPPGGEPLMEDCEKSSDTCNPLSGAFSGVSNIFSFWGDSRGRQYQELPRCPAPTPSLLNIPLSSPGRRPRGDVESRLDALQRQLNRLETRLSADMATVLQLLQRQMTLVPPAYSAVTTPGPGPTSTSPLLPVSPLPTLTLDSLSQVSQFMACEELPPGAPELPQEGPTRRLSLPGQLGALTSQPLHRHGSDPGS
Experiment: hERG inhibition
Type: cell-based
Conditions: supplement

Just so you know, measured IC50 for Cc1ccnc(-c2nsc(Nc3ncccc3C(F)(F)F)n2)c1 came out at > 30 µM

Just so you know, measured IC50 for Cc1cccnc1Nc1nc(-c2ccc(OC3CC4(C3)CN(C3CC3)C4)cn2)ns1 came out at 0.2 µM

Just so you know, measured IC50 for CNc1cccnc1Nc1nc(-c2ccc(OC(C)C)cn2)ns1 came out at 16 µM

Just so you know, measured IC50 for Cc1cccnc1Nc1nc(-c2ccc(OC(C)C)cn2)ns1 came out at > 30 µM

Just so you know, measured IC50 for Cc1cccnc1Nc1nc(-c2cc(C#N)c(OC(C)C)cn2)ns1 came out at > 30 µM

Just so you know, measured IC50 for Cc1cccnc1Nc1nc(-c2ccc(OC3CCOCC3)cn2)ns1 came out at 19 µM

Just so you know, measured IC50 for CC(C)Oc1cnc(-c2nsc(Nc3ncccc3N(C)C(=O)C3CC3)n2)cc1C(F)(F)F came out at > 30 µM

Just so you know, measured IC50 for Cc1cccnc1Nc1nc(-c2ccc(C(=O)N(C)C)cn2)ns1 came out at > 30 µM

Just so you know, measured IC50 for CC(=O)Nc1cccnc1Nc1nc(-c2ccc(OC(C)C)cn2)ns1 came out at > 30 µM

Just so you know, measured IC50 for Cc1cccnc1Nc1nc(-c2ccc(OC3CC3)cn2)ns1 came out at > 30 µM

* * *

Assignment: determine reported Tmax for the given molecules.
Assay: Mouse pharmacokinetics
Type: in vivo
Details: male CD-1 mouse, PO 30 mg/kg suspension
Provide only the numeric value, understood in min.

Just so you know, measured Tmax for Cc1cccnc1Nc1nc(-c2ccc(OC(C)C)cn2)ns1 came out at 60

Just so you know, measured Tmax for CN(C)c1cccnc1Nc1nc(-c2ccc(OC3CC3)cn2)ns1 came out at 30

Just so you know, measured Tmax for Cc1cccnc1Nc1nc(-c2ccc(OC3CCN(C4CC4)CC3)cn2)ns1 came out at 30

* * *

Test: Mouse pharmacokinetics
Assay type: in vivo
Conditions: male, CD-1, mouse, brain and plasma; brain to plasma ratio, dose not given; read-out: [b]/[p]
value-kind: Kp
Respond with the number and no other words.

Just so you know, measured Kp for CC(C)Oc1ccc(-c2nsc(Nc3ncccc3N(C)C(=O)C3CC3)n2)nc1 [Compound 50] came out at 0.11

* * *

Assignment: determine reported pIC50 for the given compounds.
Target: CYP2C19 (Homo sapiens)
Sequence (P33261 whole entry): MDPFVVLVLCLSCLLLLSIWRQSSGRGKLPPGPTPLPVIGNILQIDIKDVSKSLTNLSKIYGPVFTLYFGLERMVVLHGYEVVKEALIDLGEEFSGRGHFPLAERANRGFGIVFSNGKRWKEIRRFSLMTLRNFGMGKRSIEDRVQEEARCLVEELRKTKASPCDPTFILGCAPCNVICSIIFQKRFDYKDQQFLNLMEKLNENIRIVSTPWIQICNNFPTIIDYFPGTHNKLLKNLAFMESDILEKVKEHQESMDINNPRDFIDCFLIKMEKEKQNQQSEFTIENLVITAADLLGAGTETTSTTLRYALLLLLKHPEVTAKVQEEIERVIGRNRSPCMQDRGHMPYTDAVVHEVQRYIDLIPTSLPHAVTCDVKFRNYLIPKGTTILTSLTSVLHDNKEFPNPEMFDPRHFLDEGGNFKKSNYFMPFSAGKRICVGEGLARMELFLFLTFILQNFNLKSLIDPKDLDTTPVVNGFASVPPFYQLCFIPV
Assay: Cytochrome P450 inhibition, 2C19
Type: in vitro ADME
Conditions: read-out: Cytochrome P450s IC50, 2C19
Kindly note that pIC50 refers to -log10 of the concentration in mol/L and answer with the value alone.

Just so you know, measured pIC50 for CC(C)Oc1ccc(-c2nsc(Nc3ncccc3N(C)C)n2)nc1 came out at 4.70

Just so you know, measured pIC50 for CC(=O)N(C)c1cccnc1Nc1nc(-c2ccc(OC(C)C)cn2)ns1 came out at 4.54

* * *

Target: CYP2C8 (Homo sapiens, UniProt P10632)
Sequence (P10632 whole entry): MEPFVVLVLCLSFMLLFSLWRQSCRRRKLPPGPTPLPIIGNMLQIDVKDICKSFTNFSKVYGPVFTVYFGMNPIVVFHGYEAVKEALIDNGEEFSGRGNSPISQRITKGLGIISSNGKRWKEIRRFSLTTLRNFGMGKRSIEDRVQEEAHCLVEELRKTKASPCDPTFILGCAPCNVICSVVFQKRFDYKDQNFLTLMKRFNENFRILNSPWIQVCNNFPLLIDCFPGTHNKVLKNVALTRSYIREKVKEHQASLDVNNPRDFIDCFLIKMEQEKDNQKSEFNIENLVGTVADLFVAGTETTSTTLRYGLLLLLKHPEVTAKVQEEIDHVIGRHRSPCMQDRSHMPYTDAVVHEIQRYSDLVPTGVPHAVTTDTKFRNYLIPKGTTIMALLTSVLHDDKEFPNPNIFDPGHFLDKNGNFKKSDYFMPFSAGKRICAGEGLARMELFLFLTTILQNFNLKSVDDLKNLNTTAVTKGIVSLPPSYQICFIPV
Assay: Cytochrome P450 inhibition, 2C8
Format: in vitro ADME
Settings: read-out: Cytochrome P450s IC50, 2C8
value-kind: pIC50
Kindly note that pIC50 refers to -log10 of the concentration in mol/L and answer with the value alone.

Just so you know, measured pIC50 for CC(C)Oc1ccc(-c2nsc(Nc3ncccc3N(C)C)n2)nc1 came out at 5.15
